Numbers sourced from paper PMC6152416.

Target: human recombinant MAO-B (Homo sapiens, UniProt P27338)
Sequence (P27338 1-520): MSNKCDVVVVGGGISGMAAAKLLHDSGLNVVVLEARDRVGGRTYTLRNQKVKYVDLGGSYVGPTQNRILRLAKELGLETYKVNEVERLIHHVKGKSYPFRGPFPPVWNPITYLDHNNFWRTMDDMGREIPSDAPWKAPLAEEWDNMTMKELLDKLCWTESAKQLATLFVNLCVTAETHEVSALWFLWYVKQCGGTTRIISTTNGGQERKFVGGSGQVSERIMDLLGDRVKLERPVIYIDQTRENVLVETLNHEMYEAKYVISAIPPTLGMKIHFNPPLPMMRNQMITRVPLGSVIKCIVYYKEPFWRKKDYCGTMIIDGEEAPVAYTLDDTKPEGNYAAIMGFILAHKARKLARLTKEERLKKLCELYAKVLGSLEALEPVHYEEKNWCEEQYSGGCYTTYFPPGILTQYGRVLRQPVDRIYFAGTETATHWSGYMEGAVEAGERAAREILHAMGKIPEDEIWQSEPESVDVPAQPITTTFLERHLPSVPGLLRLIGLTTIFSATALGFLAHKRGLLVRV
Test: MAO inhibition assay (kynuramine, fluorimetric)
Type: biochemical
Conditions: 10^-3 M
EXPERIMENTAL_READOUT: MAO-B Inhibition (%)
Only the number, expressed in %, is required.

Entry under review: Cc1ccc(-c2nc3ccccc3n2CCN2CCOCC2)cc1 . Reported MAO-B Inhibition (%)? 25.27

Field request: MAO-B Inhibition (%) | item: Clc1ccc(-c2nc3ccccc3n2CCN2CCOCC2)cc1 41.12

MAO-B Inhibition (%) for COc1ccc(-c2nc3ccccc3n2CCN2CCOCC2)cc1 ? 32.44

May I ask what MAO-B Inhibition (%) has been recorded for CCN(CC)c1ccc(-c2nc3ccccc3n2CCN2CCOCC2)cc1 ? 45.58

I would be grateful if you could share the reported MAO-B Inhibition (%) for CCOc1ccc(-c2nc3ccccc3n2CCN2CCOCC2)cc1 . 41.73

Any idea what MAO-B Inhibition (%) was measured for FC(F)(F)Oc1ccc(-c2nc3ccccc3n2CCN2CCOCC2)cc1 ? 25.84
